Each item that follows carries a reported t½ Ratio pH7.4/pH6.0.
biological target: T1, human C5 (human, UniProt P01031 19-1676); assay: SPR (Biacore), mAb captured, dissociation of human C5 at pH7.4 vs pH6.0, 37°C
T1 construct: native C5 purified from plasma (EMD) in the Biacore and Octet assays, C5 of normal human serum in the CDC and hemolysis assays; two chains (alpha and beta); also called hC5; complement factor 5
Answer as a number with no unit attached.

Binder: H4H12166P10 (antibody, human IgG4, V domains shown, histidine-mutated CDR variant of H4H12166P; human IgG4 (S108P)) VH: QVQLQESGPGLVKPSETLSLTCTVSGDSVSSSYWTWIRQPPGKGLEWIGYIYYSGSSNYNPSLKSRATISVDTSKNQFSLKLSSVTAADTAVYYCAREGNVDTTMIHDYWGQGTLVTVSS VL: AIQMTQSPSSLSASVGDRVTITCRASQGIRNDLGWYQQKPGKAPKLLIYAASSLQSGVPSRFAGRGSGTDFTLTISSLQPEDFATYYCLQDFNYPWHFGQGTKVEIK
t½ Ratio pH7.4/pH6.0: 19

Consider the binder H4H12166P6 (antibody, human IgG4, V domains shown, histidine-mutated CDR variant of H4H12166P; human IgG4 (S108P)) VH: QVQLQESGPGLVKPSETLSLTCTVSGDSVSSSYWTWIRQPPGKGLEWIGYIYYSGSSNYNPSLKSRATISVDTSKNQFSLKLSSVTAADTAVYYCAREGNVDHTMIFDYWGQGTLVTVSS VL: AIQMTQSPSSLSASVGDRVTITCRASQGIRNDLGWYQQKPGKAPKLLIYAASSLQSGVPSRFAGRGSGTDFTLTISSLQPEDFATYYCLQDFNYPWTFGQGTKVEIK and give its measured t½ Ratio pH7.4/pH6.0. 8.2

Consider the binder H4H12175P (antibody, human IgG4, V domains shown, H4H: human IgG4 Fc with S108P hinge mutation) VH: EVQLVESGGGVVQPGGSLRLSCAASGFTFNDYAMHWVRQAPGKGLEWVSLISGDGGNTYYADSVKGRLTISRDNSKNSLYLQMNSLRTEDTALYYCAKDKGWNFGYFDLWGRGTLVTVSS VL: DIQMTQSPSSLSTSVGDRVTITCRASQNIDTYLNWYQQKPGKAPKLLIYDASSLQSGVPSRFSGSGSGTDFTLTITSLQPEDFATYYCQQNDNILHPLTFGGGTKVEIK and give its measured t½ Ratio pH7.4/pH6.0. 0.9

Entry source: patent US20170355757A1
